- System: Escherichia coli TOP10
- measurement protocol: shrunken log2 fold change of peptide-encoding DNA abundance (4.5 h post-induction vs induction); higher = less antimicrobial activity (less host growth inhibition)
- condition info: time post-induction: 4.5 h; library: site-saturation at positions 5, 18, 19, 20
Tick yes (1) if shrunken log2 fold change is -0.2 or greater. Tick no (0) if shrunken log2 fold change is less than -0.2.

Q: For this sequence, is measured shrunken log2 fold change -0.2 or higher? RRIRNRPPRLPRPRPRPECPPRP
Result: yes (1)

Q: For this sequence, is measured shrunken log2 fold change -0.2 or higher? RRIRYRPPRLPRPRPRPWIIPRP
Result: no (0)

Q: For this sequence, is measured shrunken log2 fold change -0.2 or higher? RRIRSRPPRLPRPRPRPYVIPRP
Result: no (0)

Q: For this sequence, is measured shrunken log2 fold change -0.2 or higher? RRIRYRPPRLPRPRPRPRTAPRP
Result: yes (1)

Q: For this sequence, is measured shrunken log2 fold change -0.2 or higher? RRIRGRPPRLPRPRPRPGAFPRP
Result: yes (1)

Q: For this sequence, is measured shrunken log2 fold change -0.2 or higher? RRIRGRPPRLPRPRPRPLQMPRP
Result: yes (1)

Q: For this sequence, is measured shrunken log2 fold change -0.2 or higher? RRIRSRPPRLPRPRPRPQYHPRP
Result: no (0)

Q: For this sequence, is measured shrunken log2 fold change -0.2 or higher? RRIRTRPPRLPRPRPRPSDEPRP
Result: no (0)

Q: For this sequence, is measured shrunken log2 fold change -0.2 or higher? RRIRTRPPRLPRPRPRPIMHPRP
Result: yes (1)

Q: For this sequence, is measured shrunken log2 fold change -0.2 or higher? RRIRARPPRLPRPRPRPAGIPRP
Result: yes (1)

Q: For this sequence, is measured shrunken log2 fold change -0.2 or higher? RRIRNRPPRLPRPRPRPLQPPRP
Result: yes (1)

Q: For this sequence, is measured shrunken log2 fold change -0.2 or higher? RRIRRRPPRLPRPRPRPDGDPRP
Result: yes (1)

Q: For this sequence, is measured shrunken log2 fold change -0.2 or higher? RRIRFRPPRLPRPRPRPWGLPRP
Result: yes (1)

Q: For this sequence, is measured shrunken log2 fold change -0.2 or higher? RRIRQRPPRLPRPRPRPKYIPRP
Result: no (0)

Q: For this sequence, is measured shrunken log2 fold change -0.2 or higher? RRIRSRPPRLPRPRPRPSGTPRP
Result: no (0)

---

- System: Escherichia coli TOP10;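 note: peptides expressed intracellularly from a pBAD plasmid library in pooled LB shake-flask culture, induced with 0.3% L-arabinose, DNA abundance read by NGS, three biological replicates, DESeq2 with apeglm shrinkage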
- measurement protocol: shrunken log2 fold change of peptide-encoding DNA abundance (4.5 h post-induction vs induction); higher = less antimicrobial activity (less host growth inhibition)
- condition info: time post-induction: 4.5 h; library: site-saturation at positions 5, 18, 19, 20
measured attribute: shrunken log2 fold change
Form: value (number only, do not type unit).

Summary for this sequence, RRIRLRPPRLPRPRPRPTGCPRP : shrunken log2 fold change is 0.19

Summary for this sequence, RRIRARPPRLPRPRPRPQGDPRP : shrunken log2 fold change is 0.207

Summary for this sequence, RRIRLRPPRLPRPRPRPTRHPRP : shrunken log2 fold change is 0.156

Summary for this sequence, RRIRKRPPRLPRPRPRPKNPPRP : shrunken log2 fold change is 0.0739

Summary for this sequence, RRIRERPPRLPRPRPRPFKFPRP : shrunken log2 fold change is -0.0774

Summary for this sequence, RRIRPRPPRLPRPRPRPPPSPRP : shrunken log2 fold change is 1.12

Summary for this sequence, RRIRRRPPRLPRPRPRPEFHPRP : shrunken log2 fold change is 0.0566

Summary for this sequence, RRIRCRPPRLPRPRPRPCDQPRP : shrunken log2 fold change is 0.143

Summary for this sequence, RRIRNRPPRLPRPRPRPRKWPRP : shrunken log2 fold change is 0.416

Summary for this sequence, RRIRLRPPRLPRPRPRPDNTPRP : shrunken log2 fold change is -0.386

Summary for this sequence, RRIRERPPRLPRPRPRPGIEPRP : shrunken log2 fold change is 0.00615

Summary for this sequence, RRIRHRPPRLPRPRPRPCDQPRP : shrunken log2 fold change is -0.000946

Summary for this sequence, RRIRMRPPRLPRPRPRPATDPRP : shrunken log2 fold change is 0.843

Summary for this sequence, RRIRVRPPRLPRPRPRPAYAPRP : shrunken log2 fold change is -0.129

Summary for this sequence, RRIRWRPPRLPRPRPRPMSTPRP : shrunken log2 fold change is -0.111

Summary for this sequence, RRIRIRPPRLPRPRPRPMKTPRP : shrunken log2 fold change is -0.057

Summary for this sequence, RRIRLRPPRLPRPRPRPEQVPRP : shrunken log2 fold change is -0.117

Summary for this sequence, RRIRGRPPRLPRPRPRPLPDPRP : shrunken log2 fold change is 0.926

Summary for this sequence, RRIRDRPPRLPRPRPRPCPLPRP : shrunken log2 fold change is -0.0882

Summary for this sequence, RRIRARPPRLPRPRPRPCHHPRP : shrunken log2 fold change is -0.0114

Summary for this sequence, RRIRHRPPRLPRPRPRPELDPRP : shrunken log2 fold change is 0.6

Summary for this sequence, RRIRYRPPRLPRPRPRPMGMPRP : shrunken log2 fold change is -0.188

Summary for this sequence, RRIRMRPPRLPRPRPRPACRPRP : shrunken log2 fold change is 0.633

Summary for this sequence, RRIRMRPPRLPRPRPRPVAWPRP : shrunken log2 fold change is 0.213

Summary for this sequence, RRIRWRPPRLPRPRPRPMAKPRP : shrunken log2 fold change is 0.148

Summary for this sequence, RRIRQRPPRLPRPRPRPLWYPRP : shrunken log2 fold change is -0.367

Summary for this sequence, RRIRDRPPRLPRPRPRPHNTPRP : shrunken log2 fold change is -0.531

Summary for this sequence, RRIRRRPPRLPRPRPRPIWWPRP : shrunken log2 fold change is 0.58

Summary for this sequence, RRIRCRPPRLPRPRPRPIIWPRP : shrunken log2 fold change is -0.178

Summary for this sequence, RRIRNRPPRLPRPRPRPWVAPRP : shrunken log2 fold change is -0.0268

Summary for this sequence, RRIRARPPRLPRPRPRPDRQPRP : shrunken log2 fold change is 0.0329

Summary for this sequence, RRIRMRPPRLPRPRPRPDHVPRP : shrunken log2 fold change is -0.0107

Summary for this sequence, RRIRWRPPRLPRPRPRPKFIPRP : shrunken log2 fold change is -0.17

Summary for this sequence, RRIRERPPRLPRPRPRPSWHPRP : shrunken log2 fold change is -0.215

Summary for this sequence, RRIRYRPPRLPRPRPRPICIPRP : shrunken log2 fold change is -0.08

Summary for this sequence, RRIRRRPPRLPRPRPRPITVPRP : shrunken log2 fold change is -0.179

Summary for this sequence, RRIRPRPPRLPRPRPRPCNGPRP : shrunken log2 fold change is -0.202

Summary for this sequence, RRIRARPPRLPRPRPRPIPWPRP : shrunken log2 fold change is 0.313

Summary for this sequence, RRIRKRPPRLPRPRPRPFCHPRP : shrunken log2 fold change is 0.00474

Summary for this sequence, RRIRERPPRLPRPRPRPWKPPRP : shrunken log2 fold change is -0.00455

Summary for this sequence, RRIRERPPRLPRPRPRPAEAPRP : shrunken log2 fold change is -0.0209

Summary for this sequence, RRIRLRPPRLPRPRPRPERDPRP : shrunken log2 fold change is -0.189

Summary for this sequence, RRIRLRPPRLPRPRPRPWYCPRP : shrunken log2 fold change is -0.766

Summary for this sequence, RRIRSRPPRLPRPRPRPIARPRP : shrunken log2 fold change is 0.029

Summary for this sequence, RRIRDRPPRLPRPRPRPHKGPRP : shrunken log2 fold change is 0.0993

Summary for this sequence, RRIRTRPPRLPRPRPRPHDNPRP : shrunken log2 fold change is -0.574

Summary for this sequence, RRIRVRPPRLPRPRPRPNVQPRP : shrunken log2 fold change is -0.0734

Summary for this sequence, RRIRIRPPRLPRPRPRPFNPPRP : shrunken log2 fold change is -0.0657

Summary for this sequence, RRIRCRPPRLPRPRPRPWYKPRP : shrunken log2 fold change is -1.01

Summary for this sequence, RRIRDRPPRLPRPRPRPTEGPRP : shrunken log2 fold change is -0.0161

Summary for this sequence, RRIRERPPRLPRPRPRPETWPRP : shrunken log2 fold change is -0.0594

Summary for this sequence, RRIRARPPRLPRPRPRPTNWPRP : shrunken log2 fold change is 0.835

Summary for this sequence, RRIRHRPPRLPRPRPRPRMDPRP : shrunken log2 fold change is 0.0986

Summary for this sequence, RRIRWRPPRLPRPRPRPPANPRP : shrunken log2 fold change is 0.629

Summary for this sequence, RRIRNRPPRLPRPRPRPHKWPRP : shrunken log2 fold change is -0.285

Summary for this sequence, RRIRTRPPRLPRPRPRPTLHPRP : shrunken log2 fold change is -0.126

Summary for this sequence, RRIRFRPPRLPRPRPRPWWRPRP : shrunken log2 fold change is -0.471

Summary for this sequence, RRIRQRPPRLPRPRPRPESNPRP : shrunken log2 fold change is -0.257

Summary for this sequence, RRIRHRPPRLPRPRPRPMQWPRP : shrunken log2 fold change is 0.00884

Summary for this sequence, RRIRMRPPRLPRPRPRPQSDPRP : shrunken log2 fold change is -0.00296

Summary for this sequence, RRIRGRPPRLPRPRPRPIANPRP : shrunken log2 fold change is 0.42

Summary for this sequence, RRIRWRPPRLPRPRPRPHFNPRP : shrunken log2 fold change is -0.333

Summary for this sequence, RRIRQRPPRLPRPRPRPRHNPRP : shrunken log2 fold change is -0.0654
